Target: T1, TNFR1 (Homo sapiens, UniProt P19438)
T1 chain: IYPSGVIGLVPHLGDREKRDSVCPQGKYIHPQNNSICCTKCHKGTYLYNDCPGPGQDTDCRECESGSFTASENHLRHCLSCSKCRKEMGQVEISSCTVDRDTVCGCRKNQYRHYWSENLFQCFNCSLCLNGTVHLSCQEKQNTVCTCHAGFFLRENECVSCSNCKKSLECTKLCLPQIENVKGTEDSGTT
Assay: yeast display SC50
Label rule, in plain words: apparent Kd (screen) of 1 nM and up is 1, under 1 nM is 0.

binder	classification
V6D (designed binder) SMEEEDEKAAKEYEKKKKEAIEKHLEKLKAKDKEAAERFLKELEEAAKEYAKDEAKTMSEEEAKRRAKKYKEKVLLSELSEEEQKEIKEAEEKLVRTILKYVEEAAK	1
K15N (designed binder) SMEEEVEKAAKEYENKKKEAIEKHLEKLKAKDKEAAERFLKELEEAAKEYAKDEAKTMSEEEAKRRAKKYKEKVLLSELSEEEQKEIKEAEEKLVRTILKYVEEAAK	0
E44W (designed binder) SMEEEVEKAAKEYEKKKKEAIEKHLEKLKAKDKEAAERFLKELWEAAKEYAKDEAKTMSEEEAKRRAKKYKEKVLLSELSEEEQKEIKEAEEKLVRTILKYVEEAAK	1
E34W (designed binder) SMEEEVEKAAKEYEKKKKEAIEKHLEKLKAKDKWAAERFLKELEEAAKEYAKDEAKTMSEEEAKRRAKKYKEKVLLSELSEEEQKEIKEAEEKLVRTILKYVEEAAK	0
K31N (designed binder) SMEEEVEKAAKEYEKKKKEAIEKHLEKLKANDKEAAERFLKELEEAAKEYAKDEAKTMSEEEAKRRAKKYKEKVLLSELSEEEQKEIKEAEEKLVRTILKYVEEAAK	0
Y101D (designed binder) SMEEEVEKAAKEYEKKKKEAIEKHLEKLKAKDKEAAERFLKELEEAAKEYAKDEAKTMSEEEAKRRAKKYKEKVLLSELSEEEQKEIKEAEEKLVRTILKDVEEAAK	0
V95H (designed binder) SMEEEVEKAAKEYEKKKKEAIEKHLEKLKAKDKEAAERFLKELEEAAKEYAKDEAKTMSEEEAKRRAKKYKEKVLLSELSEEEQKEIKEAEEKLHRTILKYVEEAAK	1
E54A (designed binder) SMEEEVEKAAKEYEKKKKEAIEKHLEKLKAKDKEAAERFLKELEEAAKEYAKDAAKTMSEEEAKRRAKKYKEKVLLSELSEEEQKEIKEAEEKLVRTILKYVEEAAK	1
K68G (designed binder) SMEEEVEKAAKEYEKKKKEAIEKHLEKLKAKDKEAAERFLKELEEAAKEYAKDEAKTMSEEEAKRRAGKYKEKVLLSELSEEEQKEIKEAEEKLVRTILKYVEEAAK	1
I87T (designed binder) SMEEEVEKAAKEYEKKKKEAIEKHLEKLKAKDKEAAERFLKELEEAAKEYAKDEAKTMSEEEAKRRAKKYKEKVLLSELSEEEQKETKEAEEKLVRTILKYVEEAAK	1
L76K (designed binder) SMEEEVEKAAKEYEKKKKEAIEKHLEKLKAKDKEAAERFLKELEEAAKEYAKDEAKTMSEEEAKRRAKKYKEKVLKSELSEEEQKEIKEAEEKLVRTILKYVEEAAK	1
E45W (designed binder) SMEEEVEKAAKEYEKKKKEAIEKHLEKLKAKDKEAAERFLKELEWAAKEYAKDEAKTMSEEEAKRRAKKYKEKVLLSELSEEEQKEIKEAEEKLVRTILKYVEEAAK	1
E103W (designed binder) SMEEEVEKAAKEYEKKKKEAIEKHLEKLKAKDKEAAERFLKELEEAAKEYAKDEAKTMSEEEAKRRAKKYKEKVLLSELSEEEQKEIKEAEEKLVRTILKYVWEAAK	0
E83Q (designed binder) SMEEEVEKAAKEYEKKKKEAIEKHLEKLKAKDKEAAERFLKELEEAAKEYAKDEAKTMSEEEAKRRAKKYKEKVLLSELSEEQQKEIKEAEEKLVRTILKYVEEAAK	0
L25E (designed binder) SMEEEVEKAAKEYEKKKKEAIEKHEEKLKAKDKEAAERFLKELEEAAKEYAKDEAKTMSEEEAKRRAKKYKEKVLLSELSEEEQKEIKEAEEKLVRTILKYVEEAAK	1
L76D (designed binder) SMEEEVEKAAKEYEKKKKEAIEKHLEKLKAKDKEAAERFLKELEEAAKEYAKDEAKTMSEEEAKRRAKKYKEKVLDSELSEEEQKEIKEAEEKLVRTILKYVEEAAK	1
